# Test name: P. aeruginosa biofilm formation inhibitors, primary screen, strain PAO1, LB-PBS medium, absorbance 600 nm (AID 1176); further: test concentration not given here
# Conditions used: P. aeruginosa PAO1 growth/biofilm, A600, 12 h; higher = more signal
Readout kind: z-score
Answers are plain numbers.

Check out these entries, answers already filled in.
>  <Compound>
NC(=O)N1C(=O)C2C(C1=O)C1C=C(c3ccc(CO)cc3)C2C(C2CC2)N1Cc1sc2ccccc2c1Cl (stereo not given)

>  <z-score>
-0.836

$$$$
>  <Compound>
COc1ccc(C(O)C2C=CC3C(=O)N(c4ccccc4)C(=O)C3N2Nc2ccc(C#N)cc2)c2ccccc12 (stereo not given)

>  <z-score>
1.55

$$$$
>  <Compound>
C=CC[C@]1(C(=O)N(C)C)N=C(c2ccc(OCCCO)cc2)O[C@H]1c1ccccc1N=[N+]=[N-]

>  <z-score>
0.286

$$$$
>  <Compound>
CC(=O)n1cc(C(O)C2C=CC3C(=O)N(c4ccccc4)C(=O)C3N2Nc2ccccc2)c2ccccc21 (stereo not given)

>  <z-score>
0.807

$$$$
>  <Compound>
CC(=O)NCCCC[C@@H]1NC(=O)[C@@H]2C[C@H](C(=O)O)[C@H](c3ccc(O)cc3)N2C1=O

>  <z-score>
-0.819

$$$$
>  <Compound>
CC(C)(C)OC(=O)CC[C@@]1(C(=O)O)N=C(c2ccc(OCCCO)cc2)O[C@@H]1c1ccccc1

>  <z-score>
-0.043

$$$$
>  <Compound>
C=CCOC(=O)[C@@H]1[C@H]2C(=O)O[C@H](c3ccccc3)[C@H](c3ccccc3)N2[C@H](c2ccc(OCCOC(=O)[C@H]3C[C@H]4C(=O)N[C@@H](CCCC[N+](C)(C)C)C(=O)N4[C@H]3c3ccc(O)cc3)cc2)[C@@]12C(=O)Nc1ccc(I)cc12

>  <z-score>
2.01

$$$$
>  <Compound>
COCCOC(=O)N1C(=O)[C@@]2(c3cc(C#CCNC(N)=O)ccc31)[C@H](C(=O)N1CCCCCCC1)[C@H]1C(=O)O[C@H](c3ccccc3)[C@H](c3ccccc3)N1[C@@H]2c1ccc(O)cc1

>  <z-score>
0.0442

$$$$

Respectfully, I request z-score for each entry included below.
1. [N-]=[N+]=Nc1ccccc1[C@H]1OC(c2ccc(OCCCO)cc2)=N[C@@]1(CCS(=O)(=O)c1ccccc1)C(=O)N1CCCCC1
2. COC(=O)[C@@]1(Cc2ccc(F)cc2)[C@H]2c3cc(C(=O)N4CCCC4)n(CCF)c3C[C@H]2CN1C(=O)c1ccccc1
3. CN(C)C(=O)[C@@]1(Cc2ccccc2N=[N+]=[N-])COC(c2ccc(OCCCO)cc2)=N1
4. O=C1c2ccccc2[C@](Cc2ccccc2I)(C(=O)NCc2ccccc2)[C@H](c2ccc(CO)cc2)N1C1CCCCC1
5. CC(C)C(=C=CC[C@H](O)c1ccc(OCCO)cc1)C[C@H](O)c1cc(Cl)cc(Cl)c1O

1: 0.715; 2: 0.84; 3: -0.497; 4: 0.214; 5: -0.21

Respectfully, I request z-score for each entry included below.
1. COC1(C)CN(Cc2ccccc2Br)[C@H](/C=C/c2ccccc2)[C@H](Cc2ccccc2)O1 (stereo not given in full)
2. COCCCNC(=O)[C@@H]1c2ccccc2C(=O)N(Cc2ccccc2C(F)(F)F)[C@H]1c1ccc(CO)cc1

0.331
-0.727
